Listing of recorded drug-induced phospholipidosis by entry.
Test system: A549-ACE2
Assay: drug-induced phospholipidosis relative to tamoxifen; higher = more phospholipidosis
Details: 10 µM; 24 h

{"Compound": "COc1ccc2c(C)nc(Nc3nc(C)c(C)c(O)n3)nc2c1", "Unit symbol": "%", "drug-induced phospholipidosis": 1.34}
{"Compound": "O=C(Nc1ccc(-c2ccnc(Nc3ccc(N4CCOCC4)cc3)n2)cc1)C1CCCN1 (centres undefined)", "Unit symbol": "%", "drug-induced phospholipidosis": 5.79}
{"Compound": "CN1CCN(C2CCN(C(=O)Nc3cc(Oc4ccc(NC(=O)C5(C(=O)Nc6ccc(F)cc6)CC5)c(F)c4)ccn3)CC2)CC1", "Unit symbol": "%", "drug-induced phospholipidosis": 79.8}
{"Compound": "O=C(NCCN1CCC2(CC1)C(=O)NCN2c1cccc(F)c1)c1ccc(F)c(F)c1", "Unit symbol": "%", "drug-induced phospholipidosis": 89.3}
